- experimentNotes: Inhibition of human recombinant ribonucleotide reductase expressed in BL21 (DE3) bacteria assessed as conversion of [3H]CDP to [3H]dCDP
pIC50: −log10 of the molar value.
measurementKind: pIC50

Some solved cases for reference:
Can you look up the measured pIC50 of NC(=O)NO [HYDROXYUREA] for me?
3.83

And then COc1ccccc1NC(=S)N/N=C/c1ccc(O)cc1 , what is it?
4.38

And then Oc1ccc(/C=N/NC(=S)Nc2ccc(Cl)cc2)cc1 , what is it?
3.54

And then Cc1cccc(NC(=S)N/N=C/c2ccc(O)cc2)c1 , what is it?
4.52

And then Cc1ccccc1NC(=S)N/N=C/c1ccc(O)cc1 , what is it?
4.44

[I] Oc1ccc(/C=N/NC(=S)Nc2ccccc2Cl)cc1
[II] Oc1ccc(/C=N/NC(=S)Nc2ccccc2O)cc1
Please indicate which item has the smaller measured pIC50: I versus II Respond with the label that goes with your answer.
I
(I: 4.33, II: 4.53)

[P] Oc1ccc(/C=N/NC(=S)Nc2ccccc2)cc1
[Q] Oc1ccc(/C=N/NC(=S)Nc2cccc(Cl)c2)cc1
Please indicate which item has the smaller measured pIC50: P versus Q Respond with the label that goes with your answer.
P
